From: patent US20190201542A1

Target: T1, human DLL3 (human, UniProt Q9NYJ7 27-492, limits assumed)
T1 construct: also called hDLL3; DLL3 protein
T1 sequence: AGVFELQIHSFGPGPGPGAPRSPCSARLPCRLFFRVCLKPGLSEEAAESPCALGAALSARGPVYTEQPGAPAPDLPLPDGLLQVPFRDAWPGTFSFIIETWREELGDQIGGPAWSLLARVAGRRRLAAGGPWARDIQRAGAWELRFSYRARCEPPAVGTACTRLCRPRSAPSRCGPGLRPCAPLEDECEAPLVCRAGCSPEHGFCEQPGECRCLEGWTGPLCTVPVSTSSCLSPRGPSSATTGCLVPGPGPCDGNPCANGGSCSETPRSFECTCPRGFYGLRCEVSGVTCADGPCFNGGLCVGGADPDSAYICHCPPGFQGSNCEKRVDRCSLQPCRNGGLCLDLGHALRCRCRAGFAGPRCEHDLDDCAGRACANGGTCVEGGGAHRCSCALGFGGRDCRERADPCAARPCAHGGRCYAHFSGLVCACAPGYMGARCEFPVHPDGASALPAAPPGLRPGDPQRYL
Experiment: screen on immobilized hDLL3 or h293-hDLL3 cells
measuredParameter: binding result

binder	measuredParameter	reported
SC16.65 (antibody, V domains shown, murine mAb) VH: QVTLKESGPGILQPSQTLSLTCSFSGFSLSTSGMGVGWIRQPSGKGLEWLALIWWDDVKRYNPALKSRLTISKDASSSQVFLKIASVDTADTATYYCARIASYDYDVVYAMDYWGQGTSVSVSS VL: QIVLTQSPALMSASPGEKVTMTCSVTSSVSYMYWYQQKPRSSPKPWIYLTSNLASGVPARFSGSGSGTSYSLTISSVEAEDAATYYCQQWRNNPFTFGSGTKVEIK	binding result	binds
SC16.105 (antibody, V domains shown, murine mAb) VH: QVQLQQPGAELVKPGASVKLSCKASGYTFTSYWMHWVKQRPGQGLEWIGVINPSNGRTNYNEKFKSKATLTVDKSSSTAYMQLSSLTSEDSAVYYCARRRELGTLYAMDYWGQGTSVTVSS VL: DIVMTQSHKFMSTSVGDRVSITCKASQDVGTAVAWYQQKPGQSPKLLIYWASIRHTGVPDRFTGSGSGTDFTLTISNVQSEDLADYFCQQYSSYPLTFGAGTKLELK	binding result	binds
SC16.62 (antibody, V domains shown, murine mAb) VH: EVMLVESGGDLVKPGGSLKLSCAASGFTFSSYAMSWVRQTPEKRLEWVAYISGGGDHIYYPDSVRGRFTISRDNAKDTLYLQMSSLRSEDTALYDCARVRDWYFDVWGAGTTVTVSS VL: DIKMTQSPSSMYASLGERVTITCKASQDINSFLSWFQRKPGKSPKTLIYRANRLVDGVPSRFTGSGSGQEFSLTISSLEYEDLGIYYCLQYDEFPYTFGGGTKLEIK	binding result	binds
